- experiment_summary: chemical genetic growth profiling, strain panel (AID 1159580);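 also: tested at 20 µM; growth read once vehicle control cultures reached saturation at 30 °C; 1 = growth at the plate median or of vehicle wells; lower values mean less growth of the strain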
- condition_info: S. cerevisiae deletion strains, growth OD, locus YDL192W, strain arf1
The campaign covered roughly 5,500 compounds. About 2,000 (36%) were called active. Inconclusive results (about 18%) are left out. Rule as the data show it: active = normalized growth mostly below about 0.91 (no sharp cut-off); inconclusive = no clear call, values can overlap the other calls; inactive = mostly above about 0.92. The list shows a part of the results.
// one of 1 for active, 0 for inactive, no free text

Would you please look over these solved cases?
| compound | category |
| --- | --- |
| C[N+](C)(C)CC(O)CC(=O)O (centres undefined) | 0 |
| NS(=O)(=O)c1cc(C2(O)NC(=O)c3ccccc32)ccc1Cl (centres undefined) | 0 |
| CCCCCCCCCCCCCCCCCC(=O)OC(CC(=O)O)C[N+](C)(C)C (centres undefined) | 1 |

Proceed to the following item.
Request: Could you please tell me the result logged for CC(=O)[C@@]1(O)CCC2C3C[C@H](C)C4=CC(=O)C=CC4(C)[C@@]3(F)[C@@H](O)C[C@@]21C (some centres undefined) in this assay?
Result: 0

====

- experiment_summary: chemical genetic growth profiling, strain panel (AID 1159580);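 also: tested at 20 µM; growth read once vehicle control cultures reached saturation at 30 °C; 1 = growth at the plate median or of vehicle wells; lower values mean less growth of the strain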
- condition_info: S. cerevisiae deletion strains, growth OD, locus YKR091W, strain srl3, stronger effect = lower value
About 2,000 (36%) of roughly 5,500 compounds were called active. Inconclusive results (about 18%) are left out. This is one part of the list.
normalized growth reference
Answer with a number only.

| compound | normalized growth |
| --- | --- |
| C[C@@H]([C@H](O)c1ccccc1)N(C)C | 1.01 |

Request: # normalized growth lookup, item CC(CC(O)C1OC1(C)C)[C@@H]1CCC2(C)C3=CCC4C(C)(C)C(=O)CCC4(C)C3CC[C@@]12C (stereo partly specified)
Result: 0.996

Request: Also COc1ccc(-c2cc(=O)c3c(O)cc(O[C@@H]4O[C@H](CO[C@H]5O[C@H](C)[C@@H](O)[C@H](O)[C@@H]5O)[C@@H](O)[C@H](O)[C@H]4O)cc3o2)cc1O , if possible.
Result: 1.02

Request: Also O=c1c(O)c(-c2ccc(O)c(O)c2)oc2c(O)c(O)cc(O)c12 , if possible.
Result: 1.03

Request: Also CC(C)(C)NCC(O)c1cc(Cl)c(N)c(Cl)c1 (stereo unspecified) , if possible.
Result: 1

Request: Also C[C@H]1O[C@H](OC2[C@@H](O)[C@@H](O)C(O)[C@H](O)[C@H]2O)[C@@H](N)C[C@@H]1N=C(N)C(=O)O (stereo partly specified) , if possible.
Result: 0.991

Request: Also CC(C)[N+](C)(CCC(C(N)=O)(c1ccccc1)c1ccccc1)C(C)C , if possible.
Result: 0.992

====

- experiment_summary: chemical genetic growth profiling, strain panel (AID 1159580);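 also: tested at 20 µM; growth read once vehicle control cultures reached saturation at 30 °C; 1 = growth at the plate median or of vehicle wells; lower values mean less growth of the strain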
- condition_info: S. cerevisiae deletion strains, growth OD, locus YDR069C, strain doa4, stronger effect = lower value
In all, about 5,500 compounds went through this assay and about 2,000 (36%) were called active. Another 18% or so got no clear call; they are omitted. Some of the results follow.
recorded_metric: normalized growth
Answer with a number only.

Request: # normalized growth lookup, item OC1CC2CCCC(C1)N2Cc1ccccc1 (stereo not drawn)
Result: 0.989

Request: Also COc1ccc2c(c1)CCC1C2CCC2(C)C1C[C@@H](O)C2O (stereo partly drawn) , if possible.
Result: 0.992

Request: Also NC(=O)NCCCC(N)C(=O)O (stereo not drawn) , if possible.
Result: 1.02

Request: Also C[C@]12CCC3c4ccc(O)cc4CCC3C1C[C@@H](O)[C@@H]2O (stereo partly drawn) , if possible.
Result: 1

Request: Also CCc1cc(C(N)=S)ccn1 , if possible.
Result: 0.978
